Hey, just so you know, these numbers are from the supplement of paper PMC8728848.

Catalogue of binders with associated glycan array binding signal (z-score)
- TARGET OR TEST SYSTEM: Gal(b1-3)GalNAc(b1-3)Gal
- ASSAY TEXT: glycan array binding signal (z-score within array); higher = stronger binding
- EXPERIMENTAL CONDITIONS: glycan notation: IUPAC condensed, linker removed
This excerpt belongs to a sample that is enriched for the strongest signals.
ENDPOINT: glycan array binding signal (z-score)

PpFlo2 (Pichia pastoris) (protein) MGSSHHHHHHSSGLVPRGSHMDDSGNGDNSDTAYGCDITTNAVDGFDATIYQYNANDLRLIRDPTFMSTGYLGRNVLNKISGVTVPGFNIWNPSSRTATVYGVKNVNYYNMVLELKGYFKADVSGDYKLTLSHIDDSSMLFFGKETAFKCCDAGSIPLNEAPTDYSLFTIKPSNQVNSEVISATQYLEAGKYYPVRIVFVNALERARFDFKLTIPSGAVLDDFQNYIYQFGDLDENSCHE :: -0.272
SUN4 (Saccharomyces cerevisiae), P53616 (protein) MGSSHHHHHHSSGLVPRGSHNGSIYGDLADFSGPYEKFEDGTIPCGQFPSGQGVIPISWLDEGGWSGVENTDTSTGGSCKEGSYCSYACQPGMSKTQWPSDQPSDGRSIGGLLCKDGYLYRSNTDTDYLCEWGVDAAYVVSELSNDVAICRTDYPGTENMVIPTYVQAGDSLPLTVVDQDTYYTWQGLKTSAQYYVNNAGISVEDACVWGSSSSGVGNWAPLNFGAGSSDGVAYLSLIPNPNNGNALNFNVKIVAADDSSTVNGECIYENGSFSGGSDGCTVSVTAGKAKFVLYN :: -0.668
OS9 (Arabidopsis thaliana) (protein) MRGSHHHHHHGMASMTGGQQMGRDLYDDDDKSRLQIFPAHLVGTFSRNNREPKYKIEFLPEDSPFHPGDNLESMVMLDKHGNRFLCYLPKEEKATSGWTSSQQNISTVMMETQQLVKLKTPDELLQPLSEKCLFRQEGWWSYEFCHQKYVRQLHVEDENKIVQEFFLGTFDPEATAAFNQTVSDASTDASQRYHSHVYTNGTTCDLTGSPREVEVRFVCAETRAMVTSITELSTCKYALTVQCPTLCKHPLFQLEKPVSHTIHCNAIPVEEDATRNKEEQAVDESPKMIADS :: 3.02
UDA (Urtica dioica), P11218 (protein) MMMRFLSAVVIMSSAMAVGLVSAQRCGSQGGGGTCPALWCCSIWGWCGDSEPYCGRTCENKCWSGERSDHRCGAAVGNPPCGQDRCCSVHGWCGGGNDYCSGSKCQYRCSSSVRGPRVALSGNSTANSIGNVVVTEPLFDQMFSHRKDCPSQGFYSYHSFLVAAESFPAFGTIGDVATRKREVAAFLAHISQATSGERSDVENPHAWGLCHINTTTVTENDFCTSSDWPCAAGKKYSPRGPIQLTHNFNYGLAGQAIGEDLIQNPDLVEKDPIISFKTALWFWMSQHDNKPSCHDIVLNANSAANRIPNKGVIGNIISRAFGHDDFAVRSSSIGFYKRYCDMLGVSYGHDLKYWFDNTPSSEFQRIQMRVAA :: -0.178
